- TARGET ENTITY: UniProtKB P35557
- Sequence (P35557 whole entry, species assumed): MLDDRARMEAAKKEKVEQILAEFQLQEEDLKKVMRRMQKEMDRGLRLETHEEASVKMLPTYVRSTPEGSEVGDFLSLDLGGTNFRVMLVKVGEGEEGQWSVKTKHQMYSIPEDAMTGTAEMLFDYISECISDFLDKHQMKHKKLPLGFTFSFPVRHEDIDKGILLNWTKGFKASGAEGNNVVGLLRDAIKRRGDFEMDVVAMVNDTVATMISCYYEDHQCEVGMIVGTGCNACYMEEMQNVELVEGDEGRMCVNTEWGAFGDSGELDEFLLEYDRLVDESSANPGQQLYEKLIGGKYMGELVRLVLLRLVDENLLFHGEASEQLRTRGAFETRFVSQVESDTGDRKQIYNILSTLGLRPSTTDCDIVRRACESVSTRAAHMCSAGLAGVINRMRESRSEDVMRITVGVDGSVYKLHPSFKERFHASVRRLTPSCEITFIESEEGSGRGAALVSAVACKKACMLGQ
- TEST PROTOCOL: In-vitro glucokinase (GK) activation assay (coupled with glucose-6-phosphate dehydrogenase, absorbance at 340)
- Assay type: biochemical
- MEASUREMENT SETUP: 1 uM compound; glucose 2.5 mM; read-out: % of GK activity wrt DMSO
Label Met for high-side activity at 1 µM (at or above 200%) and Not met for low-side activity at 1 µM (below it).

>  <COMPOUND>
Cc1csc(NC(=O)c2cc(Oc3ccc(-c4nnc(C5CC5)o4)cc3)cc(OC3CCN(C)C3=O)c2)n1 (stereo not drawn)

>  <CATEGORY>
Met

$$$$
>  <COMPOUND>
CCc1nnc(-c2ccc(Oc3cc(OC4CCN(C)C4=O)cc(C(=O)Nc4nccs4)c3)cc2)o1 (stereo not drawn)

>  <CATEGORY>
Met

$$$$
>  <COMPOUND>
Cc1csc(NC(=O)c2cc(Oc3ccc(-c4nnc(CC(C)C)o4)cc3)cc(OC3CCN(C)C3=O)c2)n1 (stereo not drawn)

>  <CATEGORY>
Met

$$$$
>  <COMPOUND>
CCN1CCC(Oc2cc(Oc3ccc(-c4nnc(C)o4)cc3)cc(C(=O)Nc3nccs3)c2)C1=O (stereo not drawn)

>  <CATEGORY>
Met

$$$$
>  <COMPOUND>
CN1CCC(Oc2cc(Oc3ccc(-c4nnc(C5CC5)o4)cc3)cc(C(=O)Nc3nccs3)c2)C1=O (stereo not drawn)

>  <CATEGORY>
Met

$$$$
>  <COMPOUND>
Cc1nnc(-c2ccc(Oc3cc(OC4CCN(C)C4=O)cc(C(=O)Nc4cnccn4)c3)cc2)o1 (stereo not drawn)

>  <CATEGORY>
Met

$$$$
>  <COMPOUND>
Cc1csc(NC(=O)c2cc(Oc3ccc(-c4nnc(C)o4)cc3)cc(OC3CCN(C)C3=O)c2)n1 (stereo not drawn)

>  <CATEGORY>
Met

$$$$
>  <COMPOUND>
Cc1nnc(-c2ccc(Oc3cc(OC4CCN(C5CCCCC5)C4=O)cc(C(=O)Nc4nccs4)c3)cc2)o1 (stereo not drawn)

>  <CATEGORY>
Not met

$$$$
>  <COMPOUND>
Cc1nnc(-c2ccc(Oc3cc(OC4CCN(C)C4=O)cc(C(=O)Nc4cc(C)n(C(=O)OC(C)(C)C)n4)c3)cc2)o1 (stereo not drawn)

>  <CATEGORY>
Not met

$$$$
>  <COMPOUND>
Cc1nnc(-c2ccc(Oc3cc(OC4CCN(C)C4=O)cc(C(=O)Nc4nc(CCN5CCOCC5=O)cs4)c3)cc2)o1 (stereo not drawn)

>  <CATEGORY>
Not met

$$$$
>  <COMPOUND>
Cc1nnc(-c2ccc(Oc3cc(OC4CCN(C)C4=O)cc(C(=O)NC4=NCCS4)c3)cc2)o1 (stereo not drawn)

>  <CATEGORY>
Not met

$$$$
>  <COMPOUND>
Cc1cc(NC(=O)c2cc(Oc3ccc(-c4nnc(C)o4)cc3)cc(OC3CCN(C)C3=O)c2)n[nH]1 (stereo not drawn)

>  <CATEGORY>
Not met

$$$$
>  <COMPOUND>
Cc1nnc(-c2ccc(Oc3cc(OC4CCN(C(C)C)C4=O)cc(C(=O)Nc4ncc(C)s4)c3)cc2)o1 (stereo not drawn)

>  <CATEGORY>
Not met

$$$$
>  <COMPOUND>
Cc1csc(NC(=O)c2cc(Oc3ccc(-c4nnc(-c5ccccc5)o4)cc3)cc(OC3CCN(C)C3=O)c2)n1 (stereo not drawn)

>  <CATEGORY>
Met

$$$$
>  <COMPOUND>
Cc1nc(-c2ccc(Oc3cc(OC4CCN(C)C4=O)cc(C(=O)Nc4ncc(C)s4)c3)cc2)no1 (stereo not drawn)

>  <CATEGORY>
Met

$$$$
